Measured On: T1, DCC
T1 construct: coated protein in the ELISA; also called DCC-His (R&D Systems)
T1 chain: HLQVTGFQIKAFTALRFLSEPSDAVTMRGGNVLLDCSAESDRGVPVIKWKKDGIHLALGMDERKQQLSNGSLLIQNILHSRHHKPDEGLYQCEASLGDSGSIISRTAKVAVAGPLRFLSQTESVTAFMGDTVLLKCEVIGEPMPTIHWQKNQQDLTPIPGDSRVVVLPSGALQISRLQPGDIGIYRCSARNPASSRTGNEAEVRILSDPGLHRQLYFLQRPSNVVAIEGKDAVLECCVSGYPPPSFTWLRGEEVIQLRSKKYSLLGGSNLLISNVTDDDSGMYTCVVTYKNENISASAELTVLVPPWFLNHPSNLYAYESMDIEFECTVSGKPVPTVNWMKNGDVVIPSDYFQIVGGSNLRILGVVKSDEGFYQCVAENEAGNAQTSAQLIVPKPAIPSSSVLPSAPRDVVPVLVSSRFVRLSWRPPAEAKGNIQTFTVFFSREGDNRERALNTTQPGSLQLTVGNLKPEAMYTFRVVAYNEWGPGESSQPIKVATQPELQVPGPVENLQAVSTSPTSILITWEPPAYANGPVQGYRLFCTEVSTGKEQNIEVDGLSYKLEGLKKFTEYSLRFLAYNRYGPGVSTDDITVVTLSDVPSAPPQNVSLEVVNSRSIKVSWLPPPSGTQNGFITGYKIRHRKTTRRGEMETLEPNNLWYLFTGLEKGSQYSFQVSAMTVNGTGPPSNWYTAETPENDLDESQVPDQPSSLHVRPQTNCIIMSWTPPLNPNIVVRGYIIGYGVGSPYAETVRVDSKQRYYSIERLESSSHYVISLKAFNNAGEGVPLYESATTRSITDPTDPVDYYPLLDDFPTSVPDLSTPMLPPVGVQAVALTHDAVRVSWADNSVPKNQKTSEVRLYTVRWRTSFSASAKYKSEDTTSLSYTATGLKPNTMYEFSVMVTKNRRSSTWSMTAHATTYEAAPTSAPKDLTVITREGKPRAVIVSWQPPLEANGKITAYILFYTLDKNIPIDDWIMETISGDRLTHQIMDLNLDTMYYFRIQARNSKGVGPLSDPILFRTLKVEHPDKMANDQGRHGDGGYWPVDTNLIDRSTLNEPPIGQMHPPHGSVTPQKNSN
Experiment Description: ELISA on coated DCC-His, 150 ng IgG1; None 0.095

Binder: HW-8 chimeric rabbit-human IgG1 LA/LA/PG (antibody, V domains shown, Fc-silenced (L234A/L235A/P329G) IgG1, kappa; Alexa Fluor 647-labeled in single-step flow cytometry; Cluster C-45) VH: QSLEESGGRLVTPGTPLTLTCTVSGFSLSSYAMSWVRQAPGKGLEWIGAISTGGSTTYASWAKGRFTISKTSSTTVDLKMTSLTTEDTATYFCVRHFRLWGPGTLVTISS VL: QVLTQTPSSVSAAVGGTVTIKCQASQSIGSALAWFQQKPGQRPKLLIYRASNLASGVPSRFKGSGSGTEFALTISGVQREDAATYYCLGGAAAVWAFGAGTNVEIKR
ELISA Absorbance (405 nm-570 nm): 0.074

Binder: HW-101 chimeric rabbit-human IgG1 LA/LA/PG (antibody, V domains shown, Fc-silenced (L234A/L235A/P329G) IgG1, lambda; Alexa Fluor 647-labeled in single-step flow cytometry; Cluster C-97) VH: QEQLVESGGRLVTPGTPLTLTCKASGFSLGKYDMSWVRQAPGKGLEWIGTIYAGSGSTWYASWAKGRFTISKTSTTVDLKMTSLTTEDTATYFCARDFLGVNSIWGPGTLVTISS VL: SFVLTQPASVQVNLGQTVSLTCTADTLSRSYASWYQQKPDQAPVLLIHRDTSRPSGVPDRFSGSNSGNTATLTISGAQAGDEADYYCATSDGSGSNFHFVFGGGTQLTVTG
ELISA Absorbance (405 nm-570 nm): 0.057

Binder: HW-1 chimeric rabbit-human IgG1 LA/LA/PG (antibody, V domains shown, Fc-silenced (L234A/L235A/P329G) IgG1, lambda; Alexa Fluor 647-labeled in single-step flow cytometry; Prototype of cluster C-1) VH: QSLEESGGGLFKPTDTLTLTCTASGFSLGSSYAISWVRQAPGKELEWIGTIDSGRAYYARWAKSRSTITRNTNENTVTLKMTSLTAADTATYFCARDLIPTYSQDIWGPGTLVTISS VL: SFVLTQPASVQVNLGQTVSLTCTADTLSRRYASWYQQKPGQAPVLLIYRDTSRPSGVPDRFSGSSSGNTATLTISGAQAGDEADYYCATSDGSGNSYQYVFGGGTQLTVTS
ELISA Absorbance (405 nm-570 nm): 0.068

Where these numbers come from: patent US20260049134A1
